Hey, just so you know, these numbers are from paper PMC6651555.

# subject.of.test: FhCL1 (Fasciola hepatica, UniProt Q7JNQ9)
# Construct: made in house; host or cells: Hansenula polymorpha (yeast)
# Sequence (Q7JNQ9 entry or part of it): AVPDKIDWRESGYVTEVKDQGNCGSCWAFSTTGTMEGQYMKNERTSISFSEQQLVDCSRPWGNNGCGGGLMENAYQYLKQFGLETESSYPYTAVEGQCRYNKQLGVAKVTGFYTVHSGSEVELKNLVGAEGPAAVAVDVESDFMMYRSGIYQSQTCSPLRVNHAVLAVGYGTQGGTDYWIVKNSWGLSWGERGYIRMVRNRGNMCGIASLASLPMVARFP
# experiment.description: FhCL1 inhibition screening, IC50 and slow-binding (fluorogenic substrate Z-VLK-AMC)
# Assay type: biochemical
# experimental.context: read-out: %Inh FhCL1, 10 µM compound, 20 min preincubation, relative to enzyme alone; SD less than 10%
measured.metric: inhibition at 10 µM (%)
Respond numerically; units are % and should not be typed.

# inhibition at 10 µM of "Cc1c(Sc2ccccc2)[n+]([O-])c2cc(Cl)c(Cl)cc2[n+]1[O-]" = 35

# inhibition at 10 µM of "N#Cc1c(N)[n+]([O-])c2ccc(/C=N/NC(=O)NCCc3ccccc3)cc2[n+]1[O-]" = 90

# inhibition at 10 µM of "C=CCN1C(=O)CS/C1=N/N=C/c1ccc2c(c1)[n+]([O-])c(C)c(C)[n+]2[O-]" = 0

# inhibition at 10 µM of "COC(=O)N/N=C/c1ccc2c(c1)[n+]([O-])c(C#N)c(N)[n+]2[O-]" = 0

# inhibition at 10 µM of "Cc1c(C(=O)c2ccccc2)[n+]([O-])c2cc(F)c(F)cc2[n+]1[O-]" = 41

# inhibition at 10 µM of "C=CCNC(=S)N/N=C/c1ccc2c(c1)[n+]([O-])c(C(=O)OCC)c(C)[n+]2[O-]" = 38

# inhibition at 10 µM of "CCOC(=O)c1c(-c2ccccc2)[n+]([O-])c2cc(Cl)c(Cl)cc2[n+]1[O-]" = 54

# inhibition at 10 µM of "Cc1c[n+]([O-])c2ccccc2[n+]1[O-]" = 1

====

For each entry below, report its %Inh FhCL3 value.
# System: FhCL3
# experiment.description: FhCL3 inhibition screening, IC50 and slow-binding (fluorogenic substrate Tos-GPR-AMC)
# Assay type: biochemical, Fasciola hepatica
# experimental.context: 10 µM compound, 20 min preincubation, relative to enzyme alone; SD less than 10%
Respond numerically; units are % and should not be typed.

# %Inh FhCL3 of "Cc1c(C(=O)Nc2ccccc2)[n+]([O-])c2cc(CN3CCN(C/C=C/c4ccccc4)CC3)ccc2[n+]1[O-]" = 49

# %Inh FhCL3 of "COC(=O)N/N=C/c1ccc2c(c1)[n+]([O-])c(C)c(C)[n+]2[O-]" = 3

# %Inh FhCL3 of "C=CCn1c(-c2ccc(Cl)cc2)csc1=NN=Cc1ccc2c(c1)[n+]([O-])c(C)c(C)[n+]2[O-]" = 2

# %Inh FhCL3 of "N#Cc1c(N)[n+]([O-])c2cc(Cl)c(Cl)cc2[n+]1[O-]" = 0

# %Inh FhCL3 of "CCOC(=O)c1c(-c2ccccc2)[n+]([O-])c2cc(Cl)c(Cl)cc2[n+]1[O-]" = 35

# %Inh FhCL3 of "Cc1c(C)[n+]([O-])c2cc(/C=N/NC(=O)NCCc3ccccc3)ccc2[n+]1[O-]" = 32

# %Inh FhCL3 of "Cc1c[n+]([O-])c2ccccc2[n+]1[O-]" = 8

# %Inh FhCL3 of "C=CCNC(=S)N/N=C/c1ccc2c(c1)[n+]([O-])c(C#N)c(N)[n+]2[O-]" = 39

====

For each entry below, report its %Inh FhCL3 value.
# Tested on: FhCL3
# experiment.description: FhCL3 inhibition screening, IC50 and slow-binding (fluorogenic substrate Tos-GPR-AMC)
# Format: biochemical, Fasciola hepatica
# experimental.context: 10 µM compound, 20 min preincubation, relative to enzyme alone; SD less than 10%
Respond numerically; units are % and should not be typed.

# %Inh FhCL3 of O=Cc1c[n+]([O-])c2ccccc2[n+]1[O-] [Compound C2] = 0

# %Inh FhCL3 of C=CCNC(=S)N/N=C/c1ccc2c(c1)[n+]([O-])c(C(=O)Nc1ccccc1)c(C)[n+]2[O-] [Compound C20] = 0

# %Inh FhCL3 of C=CCN1C(=O)CS/C1=N/N=C/c1ccc2c(c1)[n+]([O-])c(C)c(C)[n+]2[O-] [Compound C12] = 22

# %Inh FhCL3 of COC(=O)N/N=C/c1ccc2c(c1)[n+]([O-])c(C#N)c(N)[n+]2[O-] [Compound C4] = 27

# %Inh FhCL3 of CCOC(=O)c1c(C)[n+]([O-])c2ccccc2[n+]1[O-] [Compound C14] = 5

# %Inh FhCL3 of Cc1c(C(=O)c2ccccc2)[n+]([O-])c2cc(F)c(F)cc2[n+]1[O-] [Compound C26] = 17

# %Inh FhCL3 of N#Cc1c(N)[n+]([O-])c2ccc(/C=N/NC(=O)NCCc3ccccc3)cc2[n+]1[O-] [Compound C7] = 61

# %Inh FhCL3 of O=C(c1ccccc1)c1c(C(F)(F)F)[n+]([O-])c2ccccc2[n+]1[O-] [Compound C27] = 22

# %Inh FhCL3 of C=CCNC(=S)N/N=C/c1ccc2c(c1)[n+]([O-])c(C(=O)OCC)c(C)[n+]2[O-] [Compound C15] = 58
